Origin of values: paper PMC11701221

Target: Mgal-WhiA (Mycoplasma gallisepticum S6, UniProt A0A0F6CKV5 1-295)
Assay: EMSA; monomer complex; printed as without ATP, order probably swapped (1 mM ATP likely); EMSA: 20 mM carbonate pH 9.8, 6% glycerol, 37 C 10 min, gel at 10 C; MST: PBS (10 mM Na phosphate pH 7.4, 140 mM NaCl, 3 mM KCl), 0.05% Tween-20, 50 mM imidazole, 50 nM duplex, 20 C
Conditions: protein: recombinant; label: 5' FAM on strand 1; blunt
propertyLabel: pKd
Reminder that pKd is minus the log10 of a molar concentration.

Check the records and state pKd for Mut1 (dsDNA) DNA 1: AAAGATTGCTGATACACCAAAAACCAGACTCAAGTATCAG DNA 2: CTGATACTTGAGTCTGGTTTTTGGTGTATCAGCAATCTTT 6.54
